The origin of these recorded values is patent US20140178935A1.

tested system: hHGF-Fc G555E (recombinant hHGF protein containing a glycine to glutamate substitution at position 555) (human)
Sequence (chain, as listed by the source G555E G555E limits assumed): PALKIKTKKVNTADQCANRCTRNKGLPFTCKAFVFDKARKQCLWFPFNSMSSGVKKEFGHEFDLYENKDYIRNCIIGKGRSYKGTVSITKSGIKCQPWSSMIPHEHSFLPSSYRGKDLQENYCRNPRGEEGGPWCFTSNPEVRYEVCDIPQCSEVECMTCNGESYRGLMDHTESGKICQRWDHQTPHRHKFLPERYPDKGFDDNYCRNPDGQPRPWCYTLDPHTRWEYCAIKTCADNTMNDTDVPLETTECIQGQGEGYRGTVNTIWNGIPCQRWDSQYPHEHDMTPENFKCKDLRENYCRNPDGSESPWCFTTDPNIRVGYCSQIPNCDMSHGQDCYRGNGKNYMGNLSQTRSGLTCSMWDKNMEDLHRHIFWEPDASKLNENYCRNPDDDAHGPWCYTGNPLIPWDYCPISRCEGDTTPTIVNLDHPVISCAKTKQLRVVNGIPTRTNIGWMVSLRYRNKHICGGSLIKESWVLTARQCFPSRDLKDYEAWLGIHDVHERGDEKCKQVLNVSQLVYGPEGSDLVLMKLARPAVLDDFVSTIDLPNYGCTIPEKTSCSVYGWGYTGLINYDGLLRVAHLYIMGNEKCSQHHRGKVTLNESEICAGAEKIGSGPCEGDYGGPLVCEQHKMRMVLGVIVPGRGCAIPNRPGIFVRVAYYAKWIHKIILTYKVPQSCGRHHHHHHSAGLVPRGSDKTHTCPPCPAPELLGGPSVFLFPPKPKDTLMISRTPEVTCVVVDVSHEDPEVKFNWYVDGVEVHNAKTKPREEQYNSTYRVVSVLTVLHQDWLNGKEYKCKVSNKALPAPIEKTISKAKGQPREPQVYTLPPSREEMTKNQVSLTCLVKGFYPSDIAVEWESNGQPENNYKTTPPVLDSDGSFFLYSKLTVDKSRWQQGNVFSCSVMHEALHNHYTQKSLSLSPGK
test: SPR, antibody immobilized, HGF protein injected, 25 C
Experimental: Each antibody was immobilized on a carboxymethylated dextran CM5 sensor chip (BIAcore, Catalog No. BR-1006-68) by amine coupling (BIAcore, Catalog No. BR-1000-50) using a standard coupling protocol according to manufacturer's instructions. Analyses were performed at 25° C. using PBS (GIBCO, Catalog No. 14040-133) containing 0.05% surfactant P20 (BIAcore, Catalog No. R-1000-54), 2 mg/mL BSA (EMD, Catalog No. 2930) and 10 mg/mL CM-Dextran Sodium salt (Fluka, Catalog No. 86524) as running buffer. […]
endpoint: binding result

binder="anti-hHGF monoclonal antibody 3B6 (antibody, mouse IgG1, kappa, V domains shown, Murine IgG1 kappa from hybridoma) VH: QVQLQQSGAELVRPGSSVKISCKASGYVFSSYWMNWVKQRPGQGLEWIGQIYPGDGDSNYNGNFKGKATLTADKSSSTAYMQLSSLTSEDSAVYFCASQLGLRENYFDYWGQGTTLTVSS VL: DIKMTQSPSSMYASLGERVTITCKASQDIKSYLSWFQQKPGKSPKTLIYRVNRLVDGVPSRFSGSGSGQDSSLTITSLENEDMGIYYCLQYDEFPFTFGGGTKLEIKR" endpoint="binding result" result=binds
binder="anti-hHGF monoclonal antibody 1D3 (antibody, mouse IgG1, kappa, V domains shown, Murine IgG1 kappa from hybridoma) VH: EVQLVESGGGLVQPGGSLKLSCAASGFTFSDYYMSWVRQTPEKRLEWVAYISSGGGSTYYPDSVKGRFTISRDNAKNTLYLQMSSLKSEDTAIYYCVRQGDGYYGDYAMDYWGQGTSVIVSS VL: DIQMTQSPASLSVSVGETVTITCRTSENIYSNLAWYQQKQGKSPQLLIYAATNLADGVPSRFSGSGSGTQFSLRINSLQSEDFGRYYCQHFWGTPYTFGGGTKLEIKR" endpoint="binding result" result=binds
binder="anti-hHGF monoclonal antibody 1A3 (antibody, mouse IgG1, kappa, V domains shown, Murine IgG1 kappa from hybridoma) VH: EVQLVESGGGLVQPGGSLKLSCAASEFTFSNYYMSWVRQTPEKRLQWVAYISPGGGSSYYPASVKGRFTISRDNAKNTLYLQMSSLKSEDTAMYYCARQGDGYYGDYAMDYWGQGTSVTVSS VL: DIQMTQSPASLSVSVGETVTITCRASENIYSNLAWYQQKQGKSPQLLVYAATNLADGVPSRFSGSGSGTQFSLKINSLQSEDFGTYYCQHFWGTPYTFGGGTKLEIKR" endpoint="binding result" result=binds
